tested on: AHR-regulated gene CYP1A1; assay: In vitro assay 3: AHR-regulated CYP1A1 expression in human cell line (U937, qPCR); details: read-out: Assay 3: Hum CYP1A1 Antagonism IC50; U937 cells, 200 μM KA, 6 hours, qPCR
pIC50: −log10 of the molar value.
Entry flag: MET if pIC50 reaches 7; NOT MET if it does not.

Answered cases to consult:
O=C(NCC(O)C(F)(F)F)c1cc(-c2ccc(OC(F)(F)F)cc2)nn(-c2cccc(F)c2)c1=O (single isomer, unassigned) [Example 183] :: MET
CC(NC(=O)c1cc(-c2ccc(C(F)(F)F)cc2)nn(-c2cccc(F)c2)c1=O)C(O)C(F)(F)F (single isomer, unassigned) [Example 271] :: MET
CC(CCO)NC(=O)c1cc(-c2ccc(C(F)(F)F)cc2)nn(-c2cccc(F)c2)c1=O (single isomer, unassigned; (+)) [Example 254] :: MET
O=C(NCC(O)C(F)F)c1cc(-c2ccc(C(F)(F)F)cc2)nn(-c2cccc(F)c2)c1=O (single isomer, unassigned; (-)) [Example 327] :: MET
COc1ccc(-c2cc(C(=O)NCC(O)C(F)(F)F)c(=O)n(-c3cccc(F)c3)n2)cc1 (single isomer, unassigned) [Example 128] :: NOT MET

Asked: Could you please find out whether O=C(NC(CO)C1CCOC1)c1cc(-c2ccc(OC(F)(F)F)cc2)nn(-c2cccc(F)c2)c1=O (single isomer, unassigned) [Example 175] has pIC50 that meets 7 or exceeds it?
Given back: MET

Asked: Could you please find out whether O=C(N[C@@H]1COC[C@@H]1O)c1cc(-c2ccc(C(F)(F)F)cc2)nn(-c2cccc(F)c2)c1=O (single isomer, unassigned) [Example 345] has pIC50 that meets 7 or exceeds it?
Given back: MET

Asked: Could you please find out whether COc1ccc(-c2cc(C(=O)NCC(O)C(F)(F)F)c(=O)n(-c3cccc(F)c3)n2)cc1 (single isomer, unassigned) [Example 127] has pIC50 that meets 7 or exceeds it?
Given back: MET

---

molecular target: AHR (Homo sapiens); assay: In vitro assay 2: agonism in human cell line (transactivation assay); conditions: read-out: Assay 2: AHR-luc Hum Agonism IC50, no kynurenic acid, 20 hours, firefly luciferase
pIC50: −log10 of the molar value.
MEASUREMENT NAME: pIC50

Below, each entry is followed by its recorded pIC50 result.
CC(NC(=O)c1cc(-c2ccc(Cl)cc2)nn(-c2cccc(F)c2)c1=O)C(O)CO (single isomer, unassigned) [Example 359] :: < 4.70
CC(CO)CNC(=O)c1cc(-c2ccc(Cl)cc2)nn(-c2cccc(F)c2)c1=O (single isomer, unassigned; (-)) :: < 4.70

Here is the next item to consider.
Asked: Given O=C(NC(CCO)C(F)(F)F)c1cc(-c2ccc(Cl)cc2)nn(-c2cccc(F)c2)c1=O (single isomer, unassigned; (+)) , respond with its pIC50.
Given back: < 4.70

---

biological target: AHR (Homo sapiens, UniProt P35869); test: In vitro assay 1: antagonism in human cell line (transactivation assay, kynurenic acid prestimulated); details: Assay 1: AHR-luc Hum Antagonism IC50 [M], 150 μM kynurenic acid, 20 hours, firefly luciferase
Sequence (P35869 11-848): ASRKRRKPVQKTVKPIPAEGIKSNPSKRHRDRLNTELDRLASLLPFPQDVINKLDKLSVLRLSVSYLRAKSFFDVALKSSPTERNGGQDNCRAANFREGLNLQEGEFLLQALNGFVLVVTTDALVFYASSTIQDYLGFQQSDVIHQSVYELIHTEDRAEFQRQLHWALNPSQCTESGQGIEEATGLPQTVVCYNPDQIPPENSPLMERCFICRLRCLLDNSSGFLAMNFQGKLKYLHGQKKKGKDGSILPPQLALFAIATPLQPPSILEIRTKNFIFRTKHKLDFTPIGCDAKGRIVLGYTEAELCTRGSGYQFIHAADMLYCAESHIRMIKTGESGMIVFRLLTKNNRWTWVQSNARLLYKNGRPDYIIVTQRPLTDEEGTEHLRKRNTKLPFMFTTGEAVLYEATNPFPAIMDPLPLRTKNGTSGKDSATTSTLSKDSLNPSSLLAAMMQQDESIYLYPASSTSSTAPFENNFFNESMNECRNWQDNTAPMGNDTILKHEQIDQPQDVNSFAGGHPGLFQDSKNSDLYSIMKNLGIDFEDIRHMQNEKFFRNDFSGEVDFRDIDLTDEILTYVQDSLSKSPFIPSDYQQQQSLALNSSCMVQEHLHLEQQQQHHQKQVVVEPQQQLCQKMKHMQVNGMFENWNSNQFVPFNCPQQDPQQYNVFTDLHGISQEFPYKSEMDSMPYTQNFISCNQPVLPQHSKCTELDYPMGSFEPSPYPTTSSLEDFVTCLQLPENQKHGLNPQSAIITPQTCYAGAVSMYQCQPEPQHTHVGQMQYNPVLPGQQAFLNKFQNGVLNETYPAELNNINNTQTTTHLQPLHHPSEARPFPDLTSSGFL
Listing of entries alongside the reported log10(IC50).
Reminder: these figures are log10 of reported IC50, in M before transformation.

O=C(NCC(O)C(F)(F)F)c1cc(-c2ccc(Cl)cc2)nn(-c2cc(Cl)cc(Cl)c2)c1=O (stereo not drawn) [Example 311] :: -6.18
Cc1ccc(-c2cc(C(=O)NC(C)CO)c(=O)n(-c3cccc(F)c3)n2)cc1 (stereo not drawn) [Example 7] :: -7.19
CC(O)C(NC(=O)c1cc(-c2ccc(C(F)(F)F)cc2)nn(-c2cccc(F)c2)c1=O)C(F)(F)F (single isomer, unassigned) [Example 349] :: -8.45
O=C(NCC(O)C(F)F)c1cc(-c2ccc(C(F)(F)F)cc2)nn(-c2cccc(F)c2)c1=O (single isomer, unassigned; (-)) [Example 327] :: -7.78
CC(C)C(O)CNC(=O)c1cc(-c2ccc(Cl)cc2)nn(-c2cc(F)cc(F)c2)c1=O (single isomer, unassigned) [Example 50] :: -7.24

Asked: Given O=C(NC(CO)Cc1ccncc1)c1cc(-c2ccc(Cl)cc2)nn(-c2cccc(F)c2)c1=O (racemic) [Example 334] , respond with its log10(IC50).
Given back: -6.96

Asked: Given C[C@@H](CO)NC(=O)c1cc(-c2ccc(Cl)cc2)nn(-c2cccc(C#N)c2)c1=O [Example 400] , respond with its log10(IC50).
Given back: -6.10

Asked: Given COc1ccc(-c2cc(C(=O)NC(CO)C(F)(F)F)c(=O)n(-c3cccc(F)c3)n2)cc1 (single isomer, unassigned) [Example 101] , respond with its log10(IC50).
Given back: -7.91

These entries and their values trace back to patent US11040035B2.
